molecular target: SARS-CoV-2 NSP3 macrodomain (Mac1) (Severe acute respiratory syndrome coronavirus 2); type: binding; details: ligand-bound crystal structure obtained (TRUE)
endpoint.label: X-ray crystal structure

Some entries whose results are on file:
molecule	X-ray crystal structure
CN1CCN(c2ncnc3[nH]ccc23)C(CO)C1 (stereo not shown) [AVI-3721]	TRUE
CC(C)C1CCCN1c1ncnc2[nH]ccc12 (stereo not shown) [AVI-5216]	TRUE
O=C(O)C(F)(F)F.OC1([C@H]2CCCN2c2ncnc3[nH]ccc23)Cc2ccccc2C1 [AVI-3731]	TRUE
OCC1CC2(CCOCC2)CN1c1ncnc2[nH]ccc12 (stereo not shown) [AVI-3707]	TRUE
CC(C)(C)[C@@H]1CCN(c2ncnc3[nH]ccc23)[C@H](CO)C1 [AVI-3722]	TRUE

Param readout = X-ray crystal structure; param system = SARS-CoV-2 NSP3 macrodomain (Mac1) (Severe acute respiratory syndrome coronavirus 2); param query = CC(C)(C)C1CCCN1c1ncnc2[nH]ccc12 (stereo not shown) [AVI-6000] ; response: value
TRUE

Param readout = X-ray crystal structure; param system = SARS-CoV-2 NSP3 macrodomain (Mac1) (Severe acute respiratory syndrome coronavirus 2); param query = OC1(CNc2ncnc3[nH]ccc23)CCCOC1 (stereo not shown) [AVI-4311] ; response: value
TRUE

Param readout = X-ray crystal structure; param system = SARS-CoV-2 NSP3 macrodomain (Mac1) (Severe acute respiratory syndrome coronavirus 2); param query = OCC1CC2(CCCCC2)CN1c1ncnc2[nH]ccc12 (stereo not shown) [AVI-3727] ; response: value
TRUE

Param readout = X-ray crystal structure; param system = SARS-CoV-2 NSP3 macrodomain (Mac1) (Severe acute respiratory syndrome coronavirus 2); param query = OC1(CNc2ncnc3[nH]ccc23)CCOCC1 [AVI-4314] ; response: value
TRUE

Param readout = X-ray crystal structure; param system = SARS-CoV-2 NSP3 macrodomain (Mac1) (Severe acute respiratory syndrome coronavirus 2); param query = CC(C)(O)C1C2CCC2CN1c1ncnc2[nH]ccc12 (stereo not shown) [AVI-4128] ; response: value
TRUE
